Test system: Bacillus subtilis
Assay: Antimicrobial activity against Bacillus subtilis MTCC 121 at 4 mg/ml after 24 hrs by agar diffusion method
Type: functional
Conditions: MTCC 121, 24 h, read-out: DIZ
Consider the following compounds; for each one, report its zone of inhibition at 4000 µg/mL.
Answers are plain numbers, in mm.

Example compounds with recorded zone of inhibition at 4000 µg/mL:
INSERT INTO results (compound, readout_kind, reading_unit, readout_value) VALUES
  ('NS(=O)(=O)c1ccc(N2N=C(c3ccc(F)cc3)CC2c2cn(-c3ccccc3)nc2-c2ccc(Br)cc2)cc1 (stereo not drawn)', 'zone of inhibition at 4000 µg/mL', 'mm', 11),
  ('NS(=O)(=O)c1ccc(N2N=C(c3ccc(F)cc3)CC2c2cn(-c3ccccc3)nc2-c2ccccc2)cc1 (stereo not drawn)', 'zone of inhibition at 4000 µg/mL', 'mm', 23.3),
  ('NS(=O)(=O)c1ccc(N2N=C(c3ccccc3)CC2c2cn(-c3ccccc3)nc2-c2ccccc2)cc1 (stereo not drawn)', 'zone of inhibition at 4000 µg/mL', 'mm', 18.7),
  ('NS(=O)(=O)c1ccc(N2N=C(c3ccc(F)cc3)CC2c2cn(-c3ccccc3)nc2-c2ccc(F)cc2)cc1 (stereo not drawn)', 'zone of inhibition at 4000 µg/mL', 'mm', 10.7),
  ('Cc1ccc(-c2nn(-c3ccccc3)cc2C2CC(c3ccccc3)=NN2c2ccc(S(N)(=O)=O)cc2)cc1 (stereo not drawn)', 'zone of inhibition at 4000 µg/mL', 'mm', 11),
  ('NS(=O)(=O)c1ccc(N2N=C(c3ccc(Br)cc3)CC2c2cn(-c3ccccc3)nc2-c2ccccc2)cc1 (stereo not drawn)', 'zone of inhibition at 4000 µg/mL', 'mm', 11.3),
  ('NS(=O)(=O)c1ccc(N2N=C(c3ccccc3)CC2c2cn(-c3ccccc3)nc2-c2ccc(F)cc2)cc1 (stereo not drawn)', 'zone of inhibition at 4000 µg/mL', 'mm', 11.7);

Lab note: next compound to report on.
Endpoint output: zone of inhibition at 4000 µg/mL of Cc1ccc(C2=NN(c3ccc(S(N)(=O)=O)cc3)C(c3cn(-c4ccccc4)nc3-c3ccccc3)C2)cc1 (stereo not drawn) . Value?
17

----------
Tested on: Pseudomonas aeruginosa
Assay: Antimicrobial activity against Pseudomonas aeruginosa MTCC 741 after 24 hrs by broth microdilution assay
Format: functional
Conditions: MTCC 741, 24 h
readout.kind: MIC
Note to self: number, then unit, no commentary.

Example molecules with recorded MIC:
INSERT INTO assay_data (molecule, study_target, readout_kind, readout_value) VALUES
  ('Cc1ccc(C2=NN(c3ccc(S(N)(=O)=O)cc3)C(c3cn(-c4ccccc4)nc3-c3ccc(C)cc3)C2)cc1 (centres undefined)', 'Pseudomonas aeruginosa', 'MIC', '128 µg/mL'),
  ('NS(=O)(=O)c1ccc(N2N=C(c3ccc(Br)cc3)CC2c2cn(-c3ccccc3)nc2-c2ccccc2)cc1 (centres undefined)', 'Pseudomonas aeruginosa', 'MIC', '128 µg/mL');

Give one value of MIC per listed molecule.
1. Cc1ccc(-c2nn(-c3ccccc3)cc2C2CC(c3ccccc3)=NN2c2ccc(S(N)(=O)=O)cc2)cc1 (centres undefined)
2. NS(=O)(=O)c1ccc(N2N=C(c3ccccc3)CC2c2cn(-c3ccccc3)nc2-c2ccc(F)cc2)cc1 (centres undefined)

128 µg/mL
32 µg/mL
